- System: NCI-H226 lung
- ASSAY: NCI-60 one-dose screen, 48 h (100 = growth as untreated, 0 = no growth, -100 = all killed)
- MEASUREMENT CONTEXT: 10 µM
This is part of a sample that, as a whole, favours compounds with a hit. Of some 83,000 tested, about 20% had one in any assay. The source made the active and inactive calls. How the source made its calls: active means growth percent below 10; inactive means the rest.
Let's look at some molecules and their measured growth.

Worked set:
OCCN(CCO)C(=S)S	103% (inactive)
COc1cc(CN)ccc1O	99.8% (inactive)

Q: Returns the measured growth for the input molecule. Input: Cc1ccc(C)n1-c1ccsc1C(=O)NNC(=O)CCl
A: 80.1% (inactive)

Q: Dear colleague, I am looking for the recorded growth of the following molecule: O=C(O)C(O)c1ccccc1 (stereo not given)
A: 99.1% (inactive)

Q: growth lookup needed for CC(C)(C)n1nc(C2CC2)c(Br)c1NC(=O)c1ccccc1F , thanks.
A: 102% (inactive)

====

- Tested on: OVCAR-5 ovarian
- ASSAY: NCI-60 one-dose screen, 48 h (100 = growth as untreated, 0 = no growth, -100 = all killed)
- MEASUREMENT CONTEXT: 10 µM
- Description: Growth inhibition of the OVCAR-5 human tumor cell line is measured as a screen for anti-cancer activity. Cells are grown in 96 well plates and exposed to the test compound for 48 hours. Compounds are tested at a single concentration, which is 10^-5 M for most compounds. The reported endpoint is percent growth (GI% or GIPRCNT), where numbers from 0 - 100% represent growth inhibition, and numbers from -100% - 0 represent cell death. For example, a value of 40 represents 60% growth inhibition. […]
The panel holds about 83,000 compounds, 20% with a hit somewhere; the sample as a whole holds those more often.
Recorded growth for the following compounds
Provide the reading as a plain figure in %.

Solved entries:
COc1ccccc1C1OC2=Nc3cc(C)c(C)cc3NC2C1=O (stereo not drawn)	62.1
O=C1C[C@H](c2ccccc2)[C@H](c2ccccc2)C1	95.8

# next compound below
Q: Item CC1(c2ccccc2)NC(=O)NC1=O (stereo not drawn) with OVCAR-5 ovarian - growth?
A: 109

====

- Test system: SF-539 CNS
- ASSAY: NCI-60 one-dose screen, 48 h (100 = growth as untreated, 0 = no growth, -100 = all killed)
- MEASUREMENT CONTEXT: 10 µM
The panel holds about 83,000 compounds, 20% with a hit somewhere; the sample as a whole holds those more often. Where a SMILES comes first, the peptide text is derived from it. Bridges are numbered along the chain shown (N, C = ends). [ ]: non-standard residue; d: D form. The star is where a group is joined. ξ: configuration not given here. ξNMePhe(4-NMe2) = CNC(Cc1ccc(N(C)C)cc1)C(=O)O; Picolinoyl(3-OH) = O=C(c1ncccc1O)*; ξPip(4-oxo) = O=C1CCNC(C(=O)O)C1; Phg = N[CH](C(=O)O)c1ccccc1; Abu = CC[CH](N)C(=O)O
MEASUREMENT LABEL: growth (%)
# number only, unit % dropped from output

The cases that follow already have their growth on record.
CC(=O)Cc1ccc(-c2ccccc2)cc1	108
CCC1NC(=O)C(NC(=O)c2ncccc2O)C(C)OC(=O)C(c2ccccc2)NC(=O)C2CC(=O)CCN2C(=O)C(Cc2ccc(N(C)C)cc2)N(C)C(=O)C2CCCN2C1=O (stereo unspecified) (tested in a mixture with another compound) ({Picolinoyl(3-OH)}-T[Abu]P[ξNMePhe(4-NMe2)][ξPip(4-oxo)][Phg]; ester 1-C; configuration not given here)	64.2
CC1=C(/C=C/C(C)=C/C=C/C(C)=C/CO)C(C)(C)CCC1	105
CCOC(=O)C(CCC(C)C)C(=O)OCC	107
Nc1nc(N)c2cc(S(=O)(=O)c3cccc(C(F)(F)F)c3)ccc2n1	51.4

Please turn your attention to the following entry.
Q: Fill in the blank: the reported growth of O=C1OC(c2ccc(F)cc2)CC1CN1CCOCC1 (stereo unspecified) is ____.
A: 96.9

====

- Tested on: RPMI-8226 leukemia
- ASSAY: NCI-60 one-dose screen, 48 h (100 = growth as untreated, 0 = no growth, -100 = all killed)
- MEASUREMENT CONTEXT: 10 µM
The panel holds about 83,000 compounds, 20% with a hit somewhere; the sample as a whole holds those more often.
Below: a set of entries, each annotated with reported growth.
# output: bare number, implied unit %

Illustrative cases are given below, each with its answer.
Cn1cnc2nc(Cl)nc(Cl)c21	23.4
COc1cc(/C=C(\C#N)C(=O)c2ccccc2)ccc1OCc1ccccc1	107
O=[N+]([O-])c1ccc(-c2noc(-c3cccs3)n2)cc1	96.5
CC1(C)OC(=O)C(c2ccsc2)C(=O)O1	103
CCCOC(=O)C(O)c1ccccc1 (stereo unspecified)	118

Q: Report growth for COc1cc2nn(-c3ccccc3N)nc2cc1OC tested on RPMI-8226 leukemia.
A: 100

Q: Requested read-out growth, target or system RPMI-8226 leukemia, entry O=C(CCl)Nc1ccc2c(c1)C(=O)c1ccc(NC(=O)CCl)cc1C2=O
A: -40.3

Q: Write down the reported growth of Cc1cc2nc(CC(=O)c3cccc([N+](=O)[O-])c3)c(=O)[nH]c2cc1C , test system: RPMI-8226 leukemia.
A: 88.4

====

- System: KM12 colon
- ASSAY: NCI-60 one-dose screen, 48 h (100 = growth as untreated, 0 = no growth, -100 = all killed)
- MEASUREMENT CONTEXT: 10 µM
About 83,000 compounds went through this panel and 20% of them were active in at least one assay; those are over-represented in the sample as a whole.
MEASUREMENT LABEL: growth (%)
Report the value in % with no unit label.

CC(C)(C)c1cc(O)c(C(C)(C)C)cc1O	101
C/C(=C\c1ccc([N+](=O)[O-])cc1)C(=O)O	103
O=[N+]([O-])c1cccc2nsnc12	104

Read the next record carefully.
Q: Can you share its growth? I mean this molecule: CC1(c2ccccc2)NC(=O)NC1=O (centres undefined)
A: 112

====

- Tested on: MCF7 breast
- ASSAY: NCI-60 one-dose screen, 48 h (100 = growth as untreated, 0 = no growth, -100 = all killed)
- MEASUREMENT CONTEXT: 10 µM unless noted
The panel holds about 83,000 compounds, 20% with a hit somewhere; the sample as a whole holds those more often.
Threshold check on growth: at or above 90% gives Met, strictly below gives Not met.

These solved cases illustrate the format of a correct answer.
CCC(C)(O)c1ccc(C)cc1 (configuration not stated)	Met
CCOC(=O)C(C#N)Cc1ccccc1 (configuration not stated)	Met
CCOc1ccccc1/C=N/Nc1nc2ccccc2o1	Not met
CCN(CC)c1ccc2nc3ccc(=[N+](CC)CC)cc-3oc2c1	Not met

Q: Quick check: does O=C(CS)Nc1ccc2ccccc2c1 have growth greater than or equal to 90%?
A: Not met

Q: Decide: growth of CCCNc1ccc(C2=NCCCN2)cc1 >= 90%?
A: Met

Q: Does OC1CCCc2ccccc21 (configuration not stated) have a reported growth of at least 90%?
A: Met

====

growth values by entry
- Tested on: SF-539 CNS
- ASSAY: NCI-60 one-dose screen, 48 h (100 = growth as untreated, 0 = no growth, -100 = all killed)
- MEASUREMENT CONTEXT: 10 µM
Compounds without any hit were thinned out: in the full panel of roughly 83,000, 20% have a hit.
Give your result in % as a bare value.

CC(=O)c1c[nH]c2ccccc12	105
COc1ccccc1N1CCN(C(=S)Nc2ccccc2)CC1	106

Q: Notebook entry, SF-539 CNS assay: growth of O=[N+]([O-])c1ccc(CO)cc1 = ?
A: 97.9

Q: // lookup growth | system=SF-539 CNS | key= S=C(Nc1ccccc1)N1CCCCC1
A: 96.7

Q: Provide the documented growth with SF-539 CNS as the system for Cc1cc2nc(CO)[nH]c2cc1C
A: 107

Q: Identify the measured growth of CCOC(=O)C/C(C)=N\O for SF-539 CNS.
A: 107

====

- System: KM12 colon
- ASSAY: NCI-60 one-dose screen, 48 h
- MEASUREMENT CONTEXT: 10 µM
This is part of a sample that, as a whole, favours compounds with a hit. Of some 83,000 tested, about 20% had one in any assay. Calls of active or inactive are those of the source. How the source made its calls: active means growth percent below 10; inactive means the rest.
Lab note: assign the record to one of active, inactive

O=C1C=CC(=O)N1c1ccc(I)cc1Cl	inactive
Cc1ccc(O)c(C(=O)c2ccccc2)c1	inactive
NCC(=O)CCC(=O)O	inactive
CC(=O)OC1CC2C(C)(C)OC3CC(=O)OCC32C2CCC3(C)C(=CCC3c3ccoc3)C12C (stereo not given)	inactive
Cc1cccc([N+](=O)[O-])c1Cl	inactive

Q: Recorded call for N#CSc1cc(S(N)(=O)=O)ccc1N ?
A: inactive

Q: # lookup: test call for COc1ccccc1NC(=O)c1cc2cc(Br)ccc2cc1O
A: active

Q: Which outcome was assigned to Cc1cc(N2CCC(N3CCCC3)CC2)nc(/N=C(\N)Nc2ccc(Cl)c(Cl)c2)n1 in this test?
A: active

Q: Returns: the outcome recorded for COC(=O)Nc1nc2ccc(C(=O)c3cccs3)cc2[nH]1 in this assay.
A: active

Q: Name the outcome recorded for COCCOC(=O)c1ccc(C(C)C)cc1 in the assay.
A: inactive

Q: Dear all, I need the recorded test outcome for O=C(NC1CCCCC1)OCc1c(COC(=O)NC2CCCCC2)c(-c2ccc(Cl)c(Cl)c2)n2c1CCC2 , thank you.
A: inactive

Q: Give the logged outcome of this assay for the following compound: CC(CC(=O)c1ccccc1)c1ccccc1 (stereo not given)
A: inactive

Q: Hi, sorry to bother you, what did the test record for Cc1cc(Cc2cc(C)c(N)cc2N)c(N)cc1N ?
A: inactive

Q: Lab log entry: O=C(c1ccc(Cl)cc1)c1ccccc1Cl — outcome as called in the assay?
A: inactive

Q: # fetch the recorded call for COc1cc2nc3cc([N+](=O)[O-])ccc3c(Cl)c2cc1OC here
A: inactive

Q: Look up the recorded call for CCOC(=O)c1ccc(NC(=S)P(=O)(c2ccccc2)c2ccccc2)cc1 in this test.
A: inactive

Q: Kindly provide the recorded test outcome for the following compound: COC(=O)Nc1cccc(Cl)c1OC
A: inactive
